Data provenance is the supplement of paper PMC10567573.

I'd appreciate it if you could supply protein stability index values for the items below.
B1: MATN2 (parent)
chain: VNVPGSFVCQCYSGYALAEDGKRC

Variants of: B1
TEST DESCRIPTION: protein stability index of a GFP-peptide fusion (GPS, HEK-293T) (PSI 1-6); higher = more stable;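 note: lentivirally expressed fusions sorted by FACS into six bins by GFP to DsRed ratio, PSI derived from sequencing read proportions per bin multiplied by bin number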
CONDITION SET: c terminus: a fixed tail appended
Form: value (number only, do not type unit).

**Q:** Quote protein stability index reported for VNVPGSFVCQCYSGYALNEDGKRC [A18N] please.
**A:** 2.09

**Q:** Quote protein stability index reported for VWVPGSFVCQCYSGYALAEDGKRC [N2W] please.
**A:** 1.79

**Q:** Quote protein stability index reported for VNVPGSFVCQCYSGYALAHDGKRC [E19H] please.
**A:** 3.03

**Q:** Quote protein stability index reported for VNVPGSFVCQCYSGYALAEDGKRI [C24I] please.
**A:** 2.22

**Q:** Quote protein stability index reported for VNVPGSFVAQCYSGYALAEDGKRC [C9A] please.
**A:** 1.81

**Q:** Quote protein stability index reported for VNVPGSFVCQCYSGYALAEDGWRC [K22W] please.
**A:** 1.9

**Q:** Quote protein stability index reported for VNVPGSFVCQCYSGYAFAEDGKRC [L17F] please.
**A:** 1.03

**Q:** Quote protein stability index reported for VNVPGSFVCQCYSGYALAEDGKGC [R23G] please.
**A:** 2.56

**Q:** Quote protein stability index reported for VNVPPSFVCQCYSGYALAEDGKRC [G5P] please.
**A:** 2.31

**Q:** Quote protein stability index reported for VNVPGSFVCQCYSGYALAERGKRC [D20R] please.
**A:** 1.58

**Q:** Quote protein stability index reported for VNVPGSFVCQCYSGGALAEDGKRC [Y15G] please.
**A:** 2.14

**Q:** Quote protein stability index reported for VNVPGSFVCQTYSGYALAEDGKRC [C11T] please.
**A:** 2.43

**Q:** Quote protein stability index reported for VNVPGSFVCQCYSGYALAEDGKRM [C24M] please.
**A:** 2.06

**Q:** Quote protein stability index reported for VNVPGSFVCQCYSIYALAEDGKRC [G14I] please.
**A:** 3.06

**Q:** Quote protein stability index reported for VNVPGSFQCQCYSGYALAEDGKRC [V8Q] please.
**A:** 2.51

**Q:** Quote protein stability index reported for VNVPGSFVCQCYSGYALAEDGKRF [C24F] please.
**A:** 1.83

**Q:** Quote protein stability index reported for VNVPGSFVCQCYSGYRLAEDGKRC [A16R] please.
**A:** 1.52

**Q:** Quote protein stability index reported for VFVPGSFVCQCYSGYALAEDGKRC [N2F] please.
**A:** 2.64

**Q:** Quote protein stability index reported for VNVPGSFVGQCYSGYALAEDGKRC [C9G] please.
**A:** 2.8

**Q:** Quote protein stability index reported for VNVPGSFVCQCYSGYALAEDGKRV [C24V] please.
**A:** 3.76

**Q:** Quote protein stability index reported for VNVPGSFVCQCYSPYALAEDGKRC [G14P] please.
**A:** 1.78

**Q:** Quote protein stability index reported for VNVPGSFVCQCYSGYPLAEDGKRC [A16P] please.
**A:** 1.49

**Q:** Quote protein stability index reported for VNVPGSFVCQCYDGYALAEDGKRC [S13D] please.
**A:** 2.17

**Q:** Quote protein stability index reported for VNVPGSFVCQCYSLYALAEDGKRC [G14L] please.
**A:** 3.03

**Q:** Quote protein stability index reported for VNVKGSFVCQCYSGYALAEDGKRC [P4K] please.
**A:** 1.92

**Q:** Quote protein stability index reported for VNVPGSFVCQCYSNYALAEDGKRC [G14N] please.
**A:** 1.56

**Q:** Quote protein stability index reported for VNVMGSFVCQCYSGYALAEDGKRC [P4M] please.
**A:** 2.1

**Q:** Quote protein stability index reported for VNVPGSFVCQFYSGYALAEDGKRC [C11F] please.
**A:** 2.48

**Q:** Quote protein stability index reported for VNVPGSFVCQCYSGYARAEDGKRC [L17R] please.
**A:** 2.54

**Q:** Quote protein stability index reported for VNVPGSFVCQCYSGYALAQDGKRC [E19Q] please.
**A:** 1.75

**Q:** Quote protein stability index reported for VNVIGSFVCQCYSGYALAEDGKRC [P4I] please.
**A:** 1.04

**Q:** Quote protein stability index reported for VNVPGSFVCQCYSGYALAEAGKRC [D20A] please.
**A:** 1.9

**Q:** Quote protein stability index reported for VNVPGSFVCVCYSGYALAEDGKRC [Q10V] please.
**A:** 2.08

**Q:** Quote protein stability index reported for VNVPGSFVCQCYSGYSLAEDGKRC [A16S] please.
**A:** 1.84

**Q:** Quote protein stability index reported for VMVPGSFVCQCYSGYALAEDGKRC [N2M] please.
**A:** 1.71

**Q:** Quote protein stability index reported for VNVPGSFVCQCYSGYALAELGKRC [D20L] please.
**A:** 1.11

**Q:** Quote protein stability index reported for VNVPGSFVCDCYSGYALAEDGKRC [Q10D] please.
**A:** 2.47

**Q:** Quote protein stability index reported for VNVPGSFVCQCASGYALAEDGKRC [Y12A] please.
**A:** 2.73

**Q:** Quote protein stability index reported for VGVPGSFVCQCYSGYALAEDGKRC [N2G] please.
**A:** 1.89

**Q:** Quote protein stability index reported for VNVPGSFVCQCYSGYALAWDGKRC [E19W] please.
**A:** 1.86

**Q:** Quote protein stability index reported for VNVPGSFDCQCYSGYALAEDGKRC [V8D] please.
**A:** 3.89

**Q:** Quote protein stability index reported for VNVPHSFVCQCYSGYALAEDGKRC [G5H] please.
**A:** 2.6

**Q:** Quote protein stability index reported for VNVPGSFVCTCYSGYALAEDGKRC [Q10T] please.
**A:** 2.52

**Q:** Quote protein stability index reported for VNVPGSFVCQCYSGYAHAEDGKRC [L17H] please.
**A:** 2.27

**Q:** Quote protein stability index reported for VNFPGSFVCQCYSGYALAEDGKRC [V3F] please.
**A:** 1.69

**Q:** Quote protein stability index reported for VNVPGSFVCQGYSGYALAEDGKRC [C11G] please.
**A:** 2.75
